conditions: in n-pentanol, 308.15 K
Item-by-item account of solubility (mole fraction)
Provide a numeric answer; units are not to be included.

COc1ccc(-c2nn(-c3ccccc3)cc2/C=C/C(=O)c2nc3ccccc3[nH]2)cc1OC = 0.000354

Returns the measured solubility (mole fraction) for the input molecule. Input: "O=C(/C=C/c1cn(-c2ccccc2)nc1-c1ccccc1Cl)c1nc2ccccc2[nH]1"
0.000448

// next record "O=C(/C=C/c1cn(-c2ccccc2)nc1-c1ccccc1)c1nc2ccccc2[nH]1"
0.000406

// next record "O=C(/C=C/c1cn(-c2ccccc2)nc1-c1cccc([N+](=O)[O-])c1)c1nc2ccccc2[nH]1"
0.000368

// next record "COc1ccc(-c2nn(-c3ccccc3)cc2/C=C/C(=O)c2nc3ccccc3[nH]2)cc1"
0.00168

// next record "O=C(/C=C/c1cn(-c2ccccc2)nc1-c1ccc(Cl)cc1)c1nc2ccccc2[nH]1"
0.000304

// next record "COc1cccc(-c2nn(-c3ccccc3)cc2/C=C/C(=O)c2nc3ccccc3[nH]2)c1"
0.000312

* * *

conditions: in ethyl acetate, 308.15 K
assay.readout: solubility (mole fraction)
Provide a numeric answer; units are not to be included.

Example entries begin here.
O=C(/C=C/c1cn(-c2ccccc2)nc1-c1ccccc1Cl)c1nc2ccccc2[nH]1 = 0.00107
O=C(/C=C/c1cn(-c2ccccc2)nc1-c1cccc([N+](=O)[O-])c1)c1nc2ccccc2[nH]1 = 0.0017
COc1cccc(-c2nn(-c3ccccc3)cc2/C=C/C(=O)c2nc3ccccc3[nH]2)c1 = 0.000274
O=C(/C=C/c1cn(-c2ccccc2)nc1-c1ccccc1)c1nc2ccccc2[nH]1 = 0.000243
O=C(/C=C/c1cn(-c2ccccc2)nc1-c1ccc(Cl)cc1)c1nc2ccccc2[nH]1 = 0.000328
COc1ccc(-c2nn(-c3ccccc3)cc2/C=C/C(=O)c2nc3ccccc3[nH]2)cc1 = 0.000846

Returns the measured solubility (mole fraction) for the input molecule. Input: "COc1ccc(-c2nn(-c3ccccc3)cc2/C=C/C(=O)c2nc3ccccc3[nH]2)cc1OC"
0.000471

* * *

Item-by-item account of solubility (mole fraction)
settings: in methanol, 308.15 K
Provide a numeric answer; units are not to be included.

Example entries begin here.
COc1ccc(-c2nn(-c3ccccc3)cc2/C=C/C(=O)c2nc3ccccc3[nH]2)cc1 = 0.000155
O=C(/C=C/c1cn(-c2ccccc2)nc1-c1ccccc1)c1nc2ccccc2[nH]1 = 8.08e-05
O=C(/C=C/c1cn(-c2ccccc2)nc1-c1ccc(Cl)cc1)c1nc2ccccc2[nH]1 = 6.74e-05
O=C(/C=C/c1cn(-c2ccccc2)nc1-c1ccccc1Cl)c1nc2ccccc2[nH]1 = 0.000133
COc1cccc(-c2nn(-c3ccccc3)cc2/C=C/C(=O)c2nc3ccccc3[nH]2)c1 = 3.63e-05

Returns the measured solubility (mole fraction) for the input compound. Input: "O=C(/C=C/c1cn(-c2ccccc2)nc1-c1cccc([N+](=O)[O-])c1)c1nc2ccccc2[nH]1"
5.5e-05

// next record "COc1ccc(-c2nn(-c3ccccc3)cc2/C=C/C(=O)c2nc3ccccc3[nH]2)cc1OC"
4.06e-05

* * *

settings: in ethyl acetate, 313.15 K
Lab note: compare solubility (mole fraction) against 0.0009. Equal or greater, write True. Smaller, write False.

Some solved entries appear below for comparison.
O=C(/C=C/c1cn(-c2ccccc2)nc1-c1ccc(Cl)cc1)c1nc2ccccc2[nH]1 = False
O=C(/C=C/c1cn(-c2ccccc2)nc1-c1ccccc1)c1nc2ccccc2[nH]1 = False
O=C(/C=C/c1cn(-c2ccccc2)nc1-c1ccccc1Cl)c1nc2ccccc2[nH]1 = True
COc1ccc(-c2nn(-c3ccccc3)cc2/C=C/C(=O)c2nc3ccccc3[nH]2)cc1OC = False
COc1cccc(-c2nn(-c3ccccc3)cc2/C=C/C(=O)c2nc3ccccc3[nH]2)c1 = False
COc1ccc(-c2nn(-c3ccccc3)cc2/C=C/C(=O)c2nc3ccccc3[nH]2)cc1 = False

Query compound follows.
Quick check: does "O=C(/C=C/c1cn(-c2ccccc2)nc1-c1cccc([N+](=O)[O-])c1)c1nc2ccccc2[nH]1" have solubility (mole fraction) greater than or equal to 0.0009?
True

* * *

conditions: in methanol, 328.15 K
assay.readout: solubility (mole fraction)
Provide a numeric answer; units are not to be included.

Example entries begin here.
O=C(/C=C/c1cn(-c2ccccc2)nc1-c1ccc(Cl)cc1)c1nc2ccccc2[nH]1 = 0.000117
COc1cccc(-c2nn(-c3ccccc3)cc2/C=C/C(=O)c2nc3ccccc3[nH]2)c1 = 5.81e-05
COc1ccc(-c2nn(-c3ccccc3)cc2/C=C/C(=O)c2nc3ccccc3[nH]2)cc1OC = 6.53e-05
O=C(/C=C/c1cn(-c2ccccc2)nc1-c1ccccc1)c1nc2ccccc2[nH]1 = 0.000123
O=C(/C=C/c1cn(-c2ccccc2)nc1-c1cccc([N+](=O)[O-])c1)c1nc2ccccc2[nH]1 = 8.21e-05

Returns the measured solubility (mole fraction) for the input compound. Input: "COc1ccc(-c2nn(-c3ccccc3)cc2/C=C/C(=O)c2nc3ccccc3[nH]2)cc1"
0.000177

// next record "O=C(/C=C/c1cn(-c2ccccc2)nc1-c1ccccc1Cl)c1nc2ccccc2[nH]1"
0.000209

* * *

conditions: in ethanol, 313.15 K
assay.readout: solubility (mole fraction)
Provide a numeric answer; units are not to be included.

O=C(/C=C/c1cn(-c2ccccc2)nc1-c1ccc(Cl)cc1)c1nc2ccccc2[nH]1 = 0.000132
COc1ccc(-c2nn(-c3ccccc3)cc2/C=C/C(=O)c2nc3ccccc3[nH]2)cc1 = 0.000399

Returns the measured solubility (mole fraction) for the input compound. Input: "O=C(/C=C/c1cn(-c2ccccc2)nc1-c1ccccc1)c1nc2ccccc2[nH]1"
0.000123

// next record "COc1cccc(-c2nn(-c3ccccc3)cc2/C=C/C(=O)c2nc3ccccc3[nH]2)c1"
0.000121

// next record "O=C(/C=C/c1cn(-c2ccccc2)nc1-c1ccccc1Cl)c1nc2ccccc2[nH]1"
0.000157

// next record "O=C(/C=C/c1cn(-c2ccccc2)nc1-c1cccc([N+](=O)[O-])c1)c1nc2ccccc2[nH]1"
8.42e-05

// next record "COc1ccc(-c2nn(-c3ccccc3)cc2/C=C/C(=O)c2nc3ccccc3[nH]2)cc1OC"
7.16e-05

* * *

Item-by-item account of solubility (mole fraction)
settings: in acetonitrile, 318.15 K
Provide a numeric answer; units are not to be included.

Example entries begin here.
COc1cccc(-c2nn(-c3ccccc3)cc2/C=C/C(=O)c2nc3ccccc3[nH]2)c1 = 9.21e-05
O=C(/C=C/c1cn(-c2ccccc2)nc1-c1ccc(Cl)cc1)c1nc2ccccc2[nH]1 = 0.000182
O=C(/C=C/c1cn(-c2ccccc2)nc1-c1cccc([N+](=O)[O-])c1)c1nc2ccccc2[nH]1 = 0.00019
O=C(/C=C/c1cn(-c2ccccc2)nc1-c1ccccc1Cl)c1nc2ccccc2[nH]1 = 0.000187
COc1ccc(-c2nn(-c3ccccc3)cc2/C=C/C(=O)c2nc3ccccc3[nH]2)cc1 = 0.000282

Returns the measured solubility (mole fraction) for the input compound. Input: "O=C(/C=C/c1cn(-c2ccccc2)nc1-c1ccccc1)c1nc2ccccc2[nH]1"
0.000102

// next record "COc1ccc(-c2nn(-c3ccccc3)cc2/C=C/C(=O)c2nc3ccccc3[nH]2)cc1OC"
0.000189

* * *

conditions: in n-butanol, 298.15 K
Item-by-item account of solubility (mole fraction)
Provide a numeric answer; units are not to be included.

O=C(/C=C/c1cn(-c2ccccc2)nc1-c1ccccc1Cl)c1nc2ccccc2[nH]1 = 0.000294
O=C(/C=C/c1cn(-c2ccccc2)nc1-c1ccccc1)c1nc2ccccc2[nH]1 = 0.000248
O=C(/C=C/c1cn(-c2ccccc2)nc1-c1ccc(Cl)cc1)c1nc2ccccc2[nH]1 = 0.00015
COc1cccc(-c2nn(-c3ccccc3)cc2/C=C/C(=O)c2nc3ccccc3[nH]2)c1 = 0.00017
COc1ccc(-c2nn(-c3ccccc3)cc2/C=C/C(=O)c2nc3ccccc3[nH]2)cc1 = 0.00133

Returns the measured solubility (mole fraction) for the input compound. Input: "O=C(/C=C/c1cn(-c2ccccc2)nc1-c1cccc([N+](=O)[O-])c1)c1nc2ccccc2[nH]1"
0.000202

// next record "COc1ccc(-c2nn(-c3ccccc3)cc2/C=C/C(=O)c2nc3ccccc3[nH]2)cc1OC"
0.00016

* * *

details: in n-propanol, 318.15 K
Item-by-item account of solubility (mole fraction)
Provide a numeric answer; units are not to be included.

Example entries begin here.
O=C(/C=C/c1cn(-c2ccccc2)nc1-c1cccc([N+](=O)[O-])c1)c1nc2ccccc2[nH]1 = 0.000206
COc1ccc(-c2nn(-c3ccccc3)cc2/C=C/C(=O)c2nc3ccccc3[nH]2)cc1 = 0.000586
COc1ccc(-c2nn(-c3ccccc3)cc2/C=C/C(=O)c2nc3ccccc3[nH]2)cc1OC = 0.000185
COc1cccc(-c2nn(-c3ccccc3)cc2/C=C/C(=O)c2nc3ccccc3[nH]2)c1 = 0.000206
O=C(/C=C/c1cn(-c2ccccc2)nc1-c1ccc(Cl)cc1)c1nc2ccccc2[nH]1 = 0.00015

Returns the measured solubility (mole fraction) for the input compound. Input: "O=C(/C=C/c1cn(-c2ccccc2)nc1-c1ccccc1Cl)c1nc2ccccc2[nH]1"
0.000205

// next record "O=C(/C=C/c1cn(-c2ccccc2)nc1-c1ccccc1)c1nc2ccccc2[nH]1"
0.000215
